# PROCEDURE DETAILS: self-splicing fitness, log relative to wild type (ln ratio); higher = more splicing; Tetrahymena group I intron in knt gene, E. coli kanamycin selection, DiMSum; sequences stand for … in CUCUCU…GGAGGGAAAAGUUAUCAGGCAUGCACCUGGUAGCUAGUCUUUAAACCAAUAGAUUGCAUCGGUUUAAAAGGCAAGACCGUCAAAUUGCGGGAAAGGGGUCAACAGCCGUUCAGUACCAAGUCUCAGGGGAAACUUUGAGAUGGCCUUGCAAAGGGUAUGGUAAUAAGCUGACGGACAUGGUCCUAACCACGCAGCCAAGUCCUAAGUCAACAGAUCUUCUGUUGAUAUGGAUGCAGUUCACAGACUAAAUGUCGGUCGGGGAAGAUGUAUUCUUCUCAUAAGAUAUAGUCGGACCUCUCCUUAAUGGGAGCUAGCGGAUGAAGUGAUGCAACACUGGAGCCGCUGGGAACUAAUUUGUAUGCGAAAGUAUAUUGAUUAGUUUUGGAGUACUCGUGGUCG;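 further: selection with 25 µg/mL kanamycin versus none on LB agar overnight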
# ASSAY SETUP: 30 °C
# cutoff -2 applies to self-splicing fitness (ln); >= gives Criterion met, < gives Criterion not met

The following sequences have reported results that may help.
POLYMER SEQUENCE: UGGAAGCAAUAUUACGGAGG
ASSIGNED CLASS: Criterion not met
--
POLYMER SEQUENCE: ACCAAGCAAUAUUACGCUUU
ASSIGNED CLASS: Criterion not met
--
POLYMER SEQUENCE: UGGGAGCAAUAUUACGGAUA
ASSIGNED CLASS: Criterion not met
--
POLYMER SEQUENCE: AAUCAGCAAUAUUACGCCAA
ASSIGNED CLASS: Criterion met

Please find the next sequence below.
In: Does the sequence `GACGAGCAAUAUUACGGGUC` have recorded self-splicing fitness (ln) that is -2 or more?
Out: Criterion not met

----------
# PROCEDURE DETAILS: self-splicing fitness, log relative to wild type (ln ratio); higher = more splicing; Tetrahymena group I intron in knt gene, E. coli kanamycin selection, DiMSum; sequences stand for … in CUCUCU…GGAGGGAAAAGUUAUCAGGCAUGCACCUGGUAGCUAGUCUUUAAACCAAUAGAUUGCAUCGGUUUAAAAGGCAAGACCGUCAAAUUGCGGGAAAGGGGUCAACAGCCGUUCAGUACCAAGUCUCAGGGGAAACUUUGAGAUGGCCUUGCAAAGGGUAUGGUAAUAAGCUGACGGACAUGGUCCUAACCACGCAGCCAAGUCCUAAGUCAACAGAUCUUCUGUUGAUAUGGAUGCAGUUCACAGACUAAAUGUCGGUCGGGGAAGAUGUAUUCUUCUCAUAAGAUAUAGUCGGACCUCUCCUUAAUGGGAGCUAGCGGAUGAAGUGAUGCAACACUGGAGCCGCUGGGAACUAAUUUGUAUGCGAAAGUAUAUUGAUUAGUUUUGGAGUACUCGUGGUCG
# ASSAY SETUP: 30 °C
REPORTED PROPERTY: self-splicing fitness (ln)
API note: the answer field is a bare number with no unit suffix.

POLYMER SEQUENCE: UAUCAGCAAUAUUACGACCU
self-splicing fitness (ln): -0.529
//
POLYMER SEQUENCE: GUCUAGCAAUAUUACGGGAU
self-splicing fitness (ln): -4.48
//
POLYMER SEQUENCE: GACGAGCAAUAUUACGAAAU
self-splicing fitness (ln): -2.5

In: Reported self-splicing fitness (ln) for `GAUCAGCAAUAUUACGCGGU` : what is it?
Out: -2.98

In: # input sequence: `GGCGAGCAAUAUUACGGCGA` ; wanted: its self-splicing fitness (ln)
Out: -0.138

----------
# PROCEDURE DETAILS: self-splicing fitness, log relative to wild type (ln ratio); higher = more splicing; Tetrahymena group I intron in knt gene, E. coli kanamycin selection, DiMSum; sequences stand for … in CUCUCU…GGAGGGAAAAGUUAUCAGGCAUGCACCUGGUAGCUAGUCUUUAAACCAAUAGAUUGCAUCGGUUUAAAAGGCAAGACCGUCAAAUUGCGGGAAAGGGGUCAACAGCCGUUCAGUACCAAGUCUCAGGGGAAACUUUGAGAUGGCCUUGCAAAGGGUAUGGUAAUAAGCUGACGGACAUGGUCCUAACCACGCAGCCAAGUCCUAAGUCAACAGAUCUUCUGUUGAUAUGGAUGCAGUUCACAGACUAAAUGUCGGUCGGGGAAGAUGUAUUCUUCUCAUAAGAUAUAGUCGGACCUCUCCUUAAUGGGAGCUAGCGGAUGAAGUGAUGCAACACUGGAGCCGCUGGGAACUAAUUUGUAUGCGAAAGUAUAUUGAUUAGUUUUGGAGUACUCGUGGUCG
# ASSAY SETUP: 37 °C
Label fulfilled when self-splicing fitness (ln) >= -2; otherwise not fulfilled.

Reference set, count: 3
POLYMER SEQUENCE: AAGUAGCAAUAUUACGGGUU
ASSIGNED CLASS: fulfilled
//
POLYMER SEQUENCE: ACUCAGCAAUAUUACGUCCA
ASSIGNED CLASS: fulfilled
//
POLYMER SEQUENCE: CAAAAGCAAUAUUACGUCUU
ASSIGNED CLASS: fulfilled

In: Quick check, self-splicing fitness (ln) >= -2? `GAGGAGCAAUAUUACGGAAA`
Out: not fulfilled

In: // inclusive: self-splicing fitness (ln) at least -2? input: `UGAGAGCAAUAUUACGAAAA`
Out: fulfilled

----------
# PROCEDURE DETAILS: self-splicing fitness, log relative to wild type (ln ratio); higher = more splicing; Tetrahymena group I intron in knt gene, E. coli kanamycin selection, DiMSum; sequences stand for … in CUCUCU…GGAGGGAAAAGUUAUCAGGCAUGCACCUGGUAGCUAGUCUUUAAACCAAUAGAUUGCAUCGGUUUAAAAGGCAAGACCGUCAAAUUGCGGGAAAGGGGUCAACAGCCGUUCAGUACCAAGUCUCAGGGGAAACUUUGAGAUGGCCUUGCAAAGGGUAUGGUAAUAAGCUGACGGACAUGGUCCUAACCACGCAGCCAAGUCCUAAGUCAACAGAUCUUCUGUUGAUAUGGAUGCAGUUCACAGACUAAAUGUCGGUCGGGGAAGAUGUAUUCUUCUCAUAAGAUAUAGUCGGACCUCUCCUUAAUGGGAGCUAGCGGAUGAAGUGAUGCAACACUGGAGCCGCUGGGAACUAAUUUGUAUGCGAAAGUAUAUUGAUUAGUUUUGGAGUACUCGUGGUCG
# ASSAY SETUP: 30 °C
Catalogue of self-splicing fitness (ln) readings, one per entry.
The reply should be a number, written without any unit.

POLYMER SEQUENCE: GCUCAGCAAUAUUACGUUGG
REPORTED PROPERTY: self-splicing fitness (ln)
VALUE OBSERVED: -1.96
//
POLYMER SEQUENCE: GCACAGCAAUAUUACGAUAA
REPORTED PROPERTY: self-splicing fitness (ln)
VALUE OBSERVED: -1.31
//
POLYMER SEQUENCE: CCGUAGCAAUAUUACGCUAC
REPORTED PROPERTY: self-splicing fitness (ln)
VALUE OBSERVED: -4.65
//
POLYMER SEQUENCE: UUCUAGCAAUAUUACGACUA
REPORTED PROPERTY: self-splicing fitness (ln)
VALUE OBSERVED: -1.83
//
POLYMER SEQUENCE: ACCCAGCAAUAUUACGGAUU
REPORTED PROPERTY: self-splicing fitness (ln)
VALUE OBSERVED: -0.86
//
POLYMER SEQUENCE: AGCGAGCAAUAUUACGUUUU
REPORTED PROPERTY: self-splicing fitness (ln)
VALUE OBSERVED: -3.47

In: GET /values?readout=self-splicing fitness (ln)&item= `UUGGAGCAAUAUUACGACGG`
Out: 0.664

In: Data request, read-out self-splicing fitness (ln), for `GAUUAGCAAUAUUACGUAAG`
Out: -2.02

In: Find the recorded self-splicing fitness (ln) belonging to `CUGAAGCAAUAUUACGCCUC` and report it.
Out: -3.61

In: self-splicing fitness (ln) lookup needed for `AAAGAGCAAUAUUACGAAUG` , thanks.
Out: -2.69

In: What self-splicing fitness (ln) value was documented for this sequence, `CCCUAGCAAUAUUACGGACG` ?
Out: -2.32

In: Return reported self-splicing fitness (ln); argument: `CAGCAGCAAUAUUACGUCUA`
Out: -0.137

In: Reported self-splicing fitness (ln) for `CAUCAGCAAUAUUACGUUGA` : what is it?
Out: -3

In: Quick one: self-splicing fitness (ln) of `AAUUAGCAAUAUUACGGGUU` ?
Out: -1.4

In: Please report the recorded self-splicing fitness (ln) for `AACAAGCAAUAUUACGUCAA` .
Out: -1.68

In: Reported self-splicing fitness (ln), sequence `CCACAGCAAUAUUACGCACC` : ____
Out: -2.62

In: What measured self-splicing fitness (ln) goes with `UACCAGCAAUAUUACGGCAA` ?
Out: -0.203

In: Item `GUAAAGCAAUAUUACGUCGA` has what recorded self-splicing fitness (ln)?
Out: -0.947

In: Tell me the measured self-splicing fitness (ln) of `AUAAAGCAAUAUUACGGUAC` , please.
Out: -1.89

In: Look up self-splicing fitness (ln): `UGACAGCAAUAUUACGAGUG`
Out: -1.09
